Listing: IC50 of selected compounds
Target: OX2 (Homo sapiens, UniProt O43614)
Assay: Measurement of orexin receptor-binding ability ([125I]-OX-A, cell membranes, OX2)
Parameters: expressed in transfected cells; host or cells: CHO cells (membrane preparation)
Conditions: OX2 (IC50) nM, membranes of recombinant CHO cells expressing OX2, 0.2 nM [125I]-OX-A
Express it in nM; write the number only.

Worked set:
compound: Cc1ncc(OC[C@@]2(c3cc(F)cc(F)c3)C[C@H]2C(=O)Nc2ccc(Cl)cn2)c(C)n1 [Example 132]
units: nM
IC50: 4
--
compound: Cc1ncc(OC[C@@]2(c3ccc(F)c(F)c3)C[C@H]2C(=O)Nc2ccccn2)c(C)n1 [Example 166]
units: nM
IC50: 7
--
compound: COc1cccc(C2(COc3cnc(C)nc3C)CC2C(=O)Nc2ccc(Cl)cn2)c1 (centres unmarked) [Example 185]
units: nM
IC50: 7
--
compound: Cc1ncc(OCC2(c3cccc(Cl)c3)CC2C(=O)Nc2ccc(C#N)cn2)c(C)n1 (centres unmarked) [Example 156]
units: nM
IC50: 13

Quick one: give measured IC50 for Cc1ncc(OC[C@@]2(c3cccc(F)c3)C[C@H]2C(=O)Nc2ccc(F)cn2)c(CO)n1 [Example 286]
4.5

====

Target: UniProt O43613
Sequence (O43613 whole entry): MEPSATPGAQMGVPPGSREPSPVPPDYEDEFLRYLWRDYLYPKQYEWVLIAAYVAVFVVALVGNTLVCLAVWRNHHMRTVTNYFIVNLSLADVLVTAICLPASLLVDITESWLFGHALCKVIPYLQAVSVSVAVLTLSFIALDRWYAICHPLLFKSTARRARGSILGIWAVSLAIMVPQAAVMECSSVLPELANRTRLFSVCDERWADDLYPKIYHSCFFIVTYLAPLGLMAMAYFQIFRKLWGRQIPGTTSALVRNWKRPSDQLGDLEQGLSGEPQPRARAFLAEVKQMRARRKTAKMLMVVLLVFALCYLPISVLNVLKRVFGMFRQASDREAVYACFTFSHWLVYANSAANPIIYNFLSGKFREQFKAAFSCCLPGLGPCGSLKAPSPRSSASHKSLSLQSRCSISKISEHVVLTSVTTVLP
Assay: Measurement of orexin receptor-binding ability ([125I]-OX-A, cell membranes, OX1)
Design: expressed in transfected cells; host or cells: CHO cells (membrane preparation)
assay-endpoint: log10 of IC50 (log10 of the value in nM)
In plain terms, each number is the log10 of measured IC50 in nM.

molecule: Cc1ncc(OCC2(c3ccccc3C)CC2C(=O)Nc2ccc(F)cn2)c(C)n1 (centres unmarked)
tested-on: UniProt O43613
log10 of IC50: 2.22

Fill in log10 of IC50 for record "Cc1ncc(OC[C@@]2(c3cccc(C(F)(F)F)c3)C[C@H]2C(=O)Nc2ccc(F)cn2)c(C)n1"
1.48

Look up and state reported log10 of IC50 for Cc1ncc(OCC2(c3cccc(Cl)c3)CC2C(=O)Nc2ccc(F)cn2)c(C)n1 (centres unmarked)
0.78

Report log10 of IC50 for "Cc1ncc(OC[C@@]2(c3cc(F)cc(F)c3)C[C@H]2C(=O)Nc2ccccn2)c(C)n1"
1.95

Given Cc1ncc(OCC2(c3ccccc3F)CC2C(=O)Nc2cccnc2)c(C)n1 (centres unmarked) , respond with its log10 of IC50.
3.51

====

Catalogue of pIC50 values
Biological target: OX2 (Homo sapiens)
Assay: Measurement of orexin receptor-binding ability ([125I]-OX-A, cell membranes, OX2)
Set-up: expressed in transfected cells; host or cells: CHO cells (membrane preparation)
Conditions: membranes of recombinant CHO cells expressing OX2, 0.2 nM [125I]-OX-A; read-out: OX2 (IC50)
To interpret pIC50, take it as minus log10 of a concentration measured in moles per litre.

Example results:
smiles: COc1cncc(NC(=O)[C@@H]2C[C@@]2(COc2cnc(C)nc2C)c2ccccc2)c1
quantitative-readout: 7.80
//
smiles: COCc1nc(C)ncc1OC[C@@]1(c2ccccc2)C[C@H]1C(=O)Nc1cc(F)ccc1F
quantitative-readout: 7.16
//
smiles: Cc1ncc(OC[C@@]2(c3ccc(F)c(F)c3)C[C@H]2C(=O)Nc2cc(C)c(F)cn2)c(C)n1
quantitative-readout: 8.22

Here is another compound to look at.
Dear colleague, please send me the reported pIC50 for "COCc1nc(C)ncc1OC[C@@]1(c2cccc(Cl)c2)C[C@H]1C(=O)Nc1ccccn1" when you can.
8.52

====

Target: UniProt:O43614
Sequence (O43614 1-444): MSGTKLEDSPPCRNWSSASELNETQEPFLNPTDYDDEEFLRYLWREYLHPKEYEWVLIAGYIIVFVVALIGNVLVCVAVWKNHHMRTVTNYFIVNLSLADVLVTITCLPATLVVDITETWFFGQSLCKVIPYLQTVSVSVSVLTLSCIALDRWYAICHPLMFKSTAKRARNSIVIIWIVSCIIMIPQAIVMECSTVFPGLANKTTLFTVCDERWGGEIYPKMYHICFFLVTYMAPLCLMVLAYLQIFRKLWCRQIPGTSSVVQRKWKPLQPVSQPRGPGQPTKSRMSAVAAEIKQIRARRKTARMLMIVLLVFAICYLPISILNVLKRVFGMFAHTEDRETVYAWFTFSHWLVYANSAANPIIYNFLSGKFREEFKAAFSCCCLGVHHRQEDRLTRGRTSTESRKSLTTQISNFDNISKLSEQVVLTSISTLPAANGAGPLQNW
Assay: Measurement of orexin receptor-binding ability ([125I]-OX-A, cell membranes, OX2)
Set-up: expressed in transfected cells; host or cells: CHO cells (membrane preparation)
Conditions: membranes of recombinant CHO cells expressing OX2, 0.2 nM [125I]-OX-A; read-out: OX2 (IC50)
assay-endpoint: IC50 (nM)
Unit nM implied. Number only.

Before answering, review these 5 worked examples.
compound: COCc1nc(C)ncc1OC[C@@]1(c2ccc(F)c(F)c2)C[C@H]1C(=O)Nc1cccc(F)c1F
tested-on: UniProt:O43614
units: nM
IC50: 21

compound: COCCc1nc(C)ncc1OC[C@@]1(c2cccc(F)c2)C[C@H]1C(=O)Nc1ccc(F)cc1
tested-on: UniProt:O43614
units: nM
IC50: 16

compound: CCc1nc(C)ncc1OC[C@@]1(c2ccccc2)C[C@H]1C(=O)Nc1ccc(C#N)cn1
tested-on: UniProt:O43614
units: nM
IC50: 7

compound: Cc1ncc(OCC2(c3ccccc3C)CC2C(=O)Nc2cccnc2)c(C)n1 (stereo not shown)
tested-on: UniProt:O43614
units: nM
IC50: 33

compound: Cc1ncc(N(C)C[C@@]2(c3ccccc3)C[C@H]2C(=O)Nc2ccc(F)cc2)c(C)n1
tested-on: UniProt:O43614
units: nM
IC50: 34

Please report the measured IC50 for "Cc1ncc(N(C)C[C@@]2(c3cccc(F)c3)C[C@H]2C(=O)Nc2ccc(F)c(F)c2)c(C)n1"
8

Fill in reported IC50 for this entry: "COCc1nc(C)ncc1OC[C@@]1(c2cccc(Cl)c2)C[C@H]1C(=O)Nc1cc(C)c(F)cn1"
7

For the compound "Cc1ncc(OC[C@@]2(c3ccccc3)C[C@H]2C(=O)Nc2cnc(Cl)c(C(F)(F)F)c2)c(C)n1" , give its measured IC50 value.
105

Kindly indicate its recorded IC50. Item: "COCc1nc(C)ncc1OC[C@@]1(c2ccccc2)C[C@H]1C(=O)Nc1ccc(F)cn1"
1.3

Specify IC50 for CCc1nc(C)ncc1OC[C@@]1(c2ccccc2)C[C@H]1C(=O)Nc1ccc(F)cc1 [Example 124] and stop.
31

In one line, give reported IC50 of the entry "COCc1nc(C)ncc1OC[C@@]1(c2ccccc2)C[C@H]1C(=O)Nc1ccc(C(F)(F)F)cn1" .
12

Could you please provide reported IC50 for "Cc1ncc(N(C)C[C@@]2(c3cccc(F)c3)C[C@H]2C(=O)Nc2cc(C)c(Cl)cn2)c(C)n1" ? Thanks!
6

Return IC50 for the following compound: "Cc1ncc(OC[C@@]2(c3ccccc3)C[C@H]2C(=O)Nc2ccc3ccncc3c2)c(C)n1"
71

State its IC50: "Cc1ncc(OC[C@@]2(c3ccccc3)C[C@H]2C(=O)Nc2cc(F)nc(F)c2)c(C)n1"
47

Provide one value: measured IC50 of "COCc1nc(C)ncc1OC[C@@]1(c2cccc(F)c2)C[C@H]1C(=O)Nc1cc(F)ccc1F"
7

Output IC50 of "Cc1ncc(OC[C@@]2(c3cc(F)cc(F)c3)C[C@H]2c2nc3ncc(Cl)cc3[nH]2)c(C)n1"
33

Answer with reported IC50 of "COCc1nc(C)ncc1OC[C@@]1(c2cc(F)cc(F)c2)C[C@H]1C(=O)Nc1cc(C)c(F)cn1"
21

Supply reported IC50 belonging to this compound: "Cc1ncc(OC[C@@]2(c3ccccc3)C[C@H]2C(=O)Nc2cc(Cl)cc(C#N)c2)c(C)n1"
43

Read the entry "COCc1cc(NC(=O)[C@@H]2C[C@@]2(COc2cnc(C)nc2C)c2ccccc2)ncc1F" and write its reported IC50.
5.1

====

Molecular target: OX2 (Homo sapiens, UniProt O43614)
Test: Measurement of orexin receptor-binding ability ([125I]-OX-A, cell membranes, OX2)
Design: expressed in transfected cells; host or cells: CHO cells (membrane preparation)
Conditions: OX2 (IC50) nM, membranes of recombinant CHO cells expressing OX2, 0.2 nM [125I]-OX-A
Consider the following compounds and their measured IC50 readings.

Before answering, review these 2 worked examples.
smiles: COCc1nc(C)ncc1OC[C@@]1(c2cccc(F)c2)C[C@H]1C(=O)Nc1ccc(Cl)cn1
tested-on: OX2 (Homo sapiens, UniProt O43614)
result: 4 nM

smiles: CCc1nc(C)ncc1OC[C@@]1(c2ccc(F)cc2)C[C@H]1C(=O)Nc1ccc(F)cn1
tested-on: OX2 (Homo sapiens, UniProt O43614)
result: 4 nM

Here is another compound to look at.
Please report IC50 for the following compound: "COCCc1nc(C)ncc1OC[C@@]1(c2cccc(F)c2)C[C@H]1C(=O)Nc1cc(C)c(F)cn1"
4 nM
